test system: THP-1; experiment: Antiproliferative activity against human THP1 cells treated for 24 hrs measured after 72 hrs by MTT assay; assay type: functional, cell-based
Could you please report measured pIC50 for the items listed next?
Entry type: numeric. Quantity: pIC50, the -log10 of concentration in molar units.

Any idea what pIC50 was measured for O=C(O)CCCc1ccc(N(CCCl)CCCl)cc1 ?
5.28

Which pIC50 is listed for COC(=O)[C@H](Cc1ccc(N(CCCl)CCCl)cc1)NC(=O)CCC(=O)OCCCOCCCn1c2c(c3ccccc31)CCN1C(=O)c3ccccc3N(C)C21 (stereo partly drawn) ?
5.39

Tell me the measured pIC50 of CN1c2ccccc2C(=O)N2CCc3c(n(CCCCCCO)c4ccccc34)C21 (stereo not drawn) , please.
5.16

Reported pIC50, compound COC(=O)[C@H](Cc1ccc(N(CCCl)CCCl)cc1)NC(=O)CCC(=O)OCCn1c2c(c3ccccc31)CCN1C(=O)c3ccccc3N(C)C21 (stereo partly drawn) : ____
5.03

What value of measured pIC50 is listed for CN1c2ccccc2C(=O)N2CCc3c(n(CCCCCCOC(=O)c4ccc(N(CCCl)CCCl)cc4)c4ccccc34)C21 (stereo not drawn) ?
5.41

Which pIC50 is listed for CN1c2ccccc2C(=O)N2CCc3c(n(CCCOC(=O)CCCc4ccc(N(CCCl)CCCl)cc4)c4ccccc34)C21 (stereo not drawn) ?
5.25

Need pIC50 of CN1c2ccccc2C(=O)N2CCc3c(n(CCCO)c4ccccc34)C21 (stereo not drawn) , thanks.
5.05

Find the recorded pIC50 belonging to O=c1[nH]cc(F)c(=O)[nH]1 and report it.
5.31
